The entries below are paired with their reported pIC50.
# methodDescription: Cytotoxicity against human HSF cells assessed as reduction in cell viability after 72 hrs by MTT assay
# Type: cell-based
Keep in mind that pIC50 stands for -log10 of concentration in molar terms.

query: Endpoint output: pIC50 of C=C(C)[C@@H]1CC[C@]2(COC(=O)CCCC[P+](c3ccccc3)(c3ccccc3)c3ccccc3)CC[C@]3(C)[C@H](CC[C@@H]4[C@@]5(C)CC[C@H](O)C(C)(C)[C@@H]5CC[C@]43C)[C@@H]12.[Br-] . Value?
result: 5.82

###

# methodDescription: Cytotoxicity against human HSF cells assessed as reduction in cell viability after 72 hrs by MTT assay
# Format: cell-based
quantityMeasured: log10 of IC50 (log10 of the value in nM)
All values: base-10 log of IC50 in nM.

C=C(C)[C@@H]1CC[C@]2(COC(=O)CCC[P+](c3ccccc3)(c3ccccc3)c3ccccc3)CC[C@]3(C)[C@H](CC[C@@H]4[C@@]5(C)CC[C@H](OC(=O)CCC[P+](c6ccccc6)(c6ccccc6)c6ccccc6)C(C)(C)[C@@H]5CC[C@]43C)[C@@H]12.[Br-].[Br-]; 2.93
C=C(C)[C@@H]1CC[C@]2(COC(=O)CCC[P+](c3ccccc3)(c3ccccc3)c3ccccc3)CC[C@]3(C)[C@H](CC[C@@H]4[C@@]5(C)CC[C@H](O)C(C)(C)[C@@H]5CC[C@]43C)[C@@H]12; 3.32
C=C(C)[C@@H]1CC[C@]2(COC(=O)C[P+](c3ccccc3)(c3ccccc3)c3ccccc3)CC[C@]3(C)[C@H](CC[C@@H]4[C@@]5(C)CC[C@H](OC(=O)C[P+](c6ccccc6)(c6ccccc6)c6ccccc6)C(C)(C)[C@@H]5CC[C@]43C)[C@@H]12; 3.75
C=C(C)[C@@H]1CC[C@]2(COC(=O)CCCC[P+](c3ccccc3)(c3ccccc3)c3ccccc3)CC[C@]3(C)[C@H](CC[C@@H]4[C@@]5(C)CC[C@H](OC(=O)CCCC[P+](c6ccccc6)(c6ccccc6)c6ccccc6)C(C)(C)[C@@H]5CC[C@]43C)[C@@H]12.[Br-].[Br-]; 2.88

Here is the next item to consider.
query: Endpoint output: log10 of IC50 of C=C(C)[C@@H]1CC[C@]2(COC(=O)C[P+](c3ccccc3)(c3ccccc3)c3ccccc3)CC[C@]3(C)[C@H](CC[C@@H]4[C@@]5(C)CC[C@H](O)C(C)(C)[C@@H]5CC[C@]43C)[C@@H]12 . Value?
result: 4.00
